Value source: ChEMBL document CHEMBL2040711

# Tested on: Aspergillus niger
# protocol.description: Antifungal activity against Aspergillus niger at 6.25 ug/ml after 72 hrs by well plate method
# Assay type: functional
# test.context: read-out: DIZ
measured.metric: zone of inhibition at 6.25 µg/mL
Please give the number followed by its unit.

>  <smiles.representation>
Fc1ccc(-c2cc(-c3nc4ccccc4[nH]3)c3cc(F)ccc3n2)cc1

>  <result>
10 mm

$$$$

*Q* Query zone of inhibition at 6.25 µg/mL for `Fc1ccc(-c2cc(-c3nc4ncccc4[nH]3)c3cc(F)ccc3n2)cc1`
*A* 11 mm

*Q* Query zone of inhibition at 6.25 µg/mL for `OC(Cn1cncn1)(Cn1cncn1)c1ccc(F)cc1F`
*A* 14 mm

*Q* Query zone of inhibition at 6.25 µg/mL for `Fc1ccc(-c2cc(-c3nc4cc(Cl)c(Cl)cc4[nH]3)c3ccccc3n2)cc1`
*A* 10 mm

*Q* Query zone of inhibition at 6.25 µg/mL for `COc1ccc2nc(-c3cc(-c4ccc(F)cc4)nc4ccccc34)[nH]c2c1`
*A* 10 mm

*Q* Query zone of inhibition at 6.25 µg/mL for `Fc1ccc(-c2cc(-c3nc4ccccc4[nH]3)c3cc(Cl)ccc3n2)cc1`
*A* 10 mm

*Q* Query zone of inhibition at 6.25 µg/mL for `Fc1ccc(-c2cc(-c3nc4ccc(F)cc4[nH]3)c3cc(F)ccc3n2)cc1`
*A* 10 mm

*Q* Query zone of inhibition at 6.25 µg/mL for `Fc1ccc(-c2cc(-c3nc4ncccc4[nH]3)c3cc(Cl)ccc3n2)cc1`
*A* 12 mm

----------
Measured zone of inhibition at 12.5 µg/mL accompanies every entry in the list below.
# System: Escherichia coli
# protocol.description: Antibacterial activity against Escherichia coli at 12.5 ug/ml after 24 to 48 hrs by well plate diffusion method
# Format: functional
# test.context: read-out: DIZ
Entry rule: numbers only, all in mm.

Some solved cases for reference:
>  <smiles.representation>
COc1ccc2nc(-c3cc(-c4ccc(F)cc4)nc4ccccc34)[nH]c2c1

>  <zone of inhibition at 12.5 µg/mL (mm)>
14

$$$$
>  <smiles.representation>
Fc1ccc(-c2cc(-c3nc4cc(Cl)c(Cl)cc4[nH]3)c3cc(Cl)ccc3n2)cc1

>  <zone of inhibition at 12.5 µg/mL (mm)>
17

$$$$
>  <smiles.representation>
Fc1ccc(-c2cc(-c3nc4ccccc4[nH]3)c3ccccc3n2)cc1

>  <zone of inhibition at 12.5 µg/mL (mm)>
16

$$$$
>  <smiles.representation>
Fc1ccc(-c2cc(-c3nc4cc(Cl)c(Cl)cc4[nH]3)c3ccccc3n2)cc1

>  <zone of inhibition at 12.5 µg/mL (mm)>
16

$$$$

*Q* Query zone of inhibition at 12.5 µg/mL for `Fc1ccc(-c2cc(-c3nc4ccc(Cl)cc4[nH]3)c3ccccc3n2)cc1`
*A* 16

----------
# Test system: Aspergillus niger
# protocol.description: Antifungal activity against Aspergillus niger at 12.5 ug/ml after 72 hrs by well plate method
# Type: functional
# test.context: read-out: DIZ
Measured zone of inhibition at 12.5 µg/mL accompanies every entry in the list below.
Entry rule: numbers only, all in mm.

Some solved cases for reference:
>  <smiles.representation>
Fc1ccc(-c2cc(-c3nc4cc(Cl)c(Cl)cc4[nH]3)c3ccccc3n2)cc1

>  <test.target>
Aspergillus niger

>  <zone of inhibition at 12.5 µg/mL / mm>
12

$$$$
>  <smiles.representation>
Fc1ccc(-c2cc(-c3nc4ncccc4[nH]3)c3ccccc3n2)cc1

>  <test.target>
Aspergillus niger

>  <zone of inhibition at 12.5 µg/mL / mm>
16

$$$$
>  <smiles.representation>
Fc1ccc(-c2cc(-c3nc4ccc(Cl)cc4[nH]3)c3cc(Cl)ccc3n2)cc1

>  <test.target>
Aspergillus niger

>  <zone of inhibition at 12.5 µg/mL / mm>
10

$$$$
>  <smiles.representation>
Fc1ccc(-c2cc(-c3nc4ccccc4[nH]3)c3cc(Cl)ccc3n2)cc1

>  <test.target>
Aspergillus niger

>  <zone of inhibition at 12.5 µg/mL / mm>
12

$$$$
>  <smiles.representation>
Fc1ccc(-c2cc(-c3nc4cc(Cl)c(Cl)cc4[nH]3)c3cc(Cl)ccc3n2)cc1

>  <test.target>
Aspergillus niger

>  <zone of inhibition at 12.5 µg/mL / mm>
12

$$$$

*Q* Query zone of inhibition at 12.5 µg/mL for `Fc1ccc(-c2cc(-c3nc4ncccc4[nH]3)c3cc(Cl)ccc3n2)cc1`
*A* 14

*Q* Query zone of inhibition at 12.5 µg/mL for `Fc1ccc(-c2cc(-c3nc4ccc(F)cc4[nH]3)c3cc(F)ccc3n2)cc1`
*A* 17

----------
# Test system: Salmonella sp.
# protocol.description: Antibacterial activity against Salmonella sp. at 6.25 ug/ml after 24 to 48 hrs by well plate diffusion method
# Assay type: functional
# test.context: read-out: DIZ
Measured zone of inhibition at 6.25 µg/mL accompanies every entry in the list below.
Entry rule: numbers only, all in mm.

>  <smiles.representation>
Fc1ccc(-c2cc(-c3nc4ccccc4[nH]3)c3ccccc3n2)cc1

>  <test.target>
Salmonella sp.

>  <numeric.readout>
9

$$$$

*Q* Query zone of inhibition at 6.25 µg/mL for `Fc1ccc(-c2cc(-c3nc4ccc(Cl)cc4[nH]3)c3ccccc3n2)cc1`
*A* 9

*Q* Query zone of inhibition at 6.25 µg/mL for `Fc1ccc(-c2cc(-c3nc4ccc(Cl)cc4[nH]3)c3cc(Cl)ccc3n2)cc1`
*A* 10

*Q* Query zone of inhibition at 6.25 µg/mL for `Fc1ccc(-c2cc(-c3nc4cc(Cl)c(Cl)cc4[nH]3)c3ccccc3n2)cc1`
*A* 11

*Q* Query zone of inhibition at 6.25 µg/mL for `COc1ccc2nc(-c3cc(-c4ccc(F)cc4)nc4ccccc34)[nH]c2c1`
*A* 10

----------
Measured zone of inhibition at 12.5 µg/mL accompanies every entry in the list below.
# System: Aspergillus niger
# protocol.description: Antifungal activity against Aspergillus niger at 12.5 ug/ml after 72 hrs by well plate method
# Format: functional
# test.context: read-out: DIZ
Entry rule: numbers only, all in mm.

Some solved cases for reference:
>  <smiles.representation>
Fc1ccc(-c2cc(-c3nc4ccccc4[nH]3)c3cc(F)ccc3n2)cc1

>  <zone of inhibition at 12.5 µg/mL / mm>
12

$$$$
>  <smiles.representation>
Fc1ccc(-c2cc(-c3nc4cc(Cl)c(Cl)cc4[nH]3)c3cc(F)ccc3n2)cc1

>  <zone of inhibition at 12.5 µg/mL / mm>
13

$$$$
>  <smiles.representation>
Fc1ccc(-c2cc(-c3nc4ccc(F)cc4[nH]3)c3ccccc3n2)cc1

>  <zone of inhibition at 12.5 µg/mL / mm>
14

$$$$

*Q* Query zone of inhibition at 12.5 µg/mL for `Fc1ccc(-c2cc(-c3nc4ncccc4[nH]3)c3cc(F)ccc3n2)cc1`
*A* 13

*Q* Query zone of inhibition at 12.5 µg/mL for `OC(Cn1cncn1)(Cn1cncn1)c1ccc(F)cc1F`
*A* 18

*Q* Query zone of inhibition at 12.5 µg/mL for `Fc1ccc(-c2cc(-c3nc4ccc(Cl)cc4[nH]3)c3cc(F)ccc3n2)cc1`
*A* 10

----------
# Test system: Aspergillus terreus
# protocol.description: Antifungal activity against Aspergillus terreus at 6.25 ug/ml after 72 hrs by well plate method
# Type: functional
# test.context: read-out: DIZ
measured.metric: zone of inhibition at 6.25 µg/mL (mm)
Entry rule: numbers only, all in mm.

Some solved cases for reference:
>  <smiles.representation>
Fc1ccc(-c2cc(-c3nc4cc(Cl)c(Cl)cc4[nH]3)c3ccccc3n2)cc1

>  <test.target>
Aspergillus terreus

>  <zone of inhibition at 6.25 µg/mL [mm]>
10

$$$$
>  <smiles.representation>
Fc1ccc(-c2cc(-c3nc4cc(Cl)c(Cl)cc4[nH]3)c3cc(Cl)ccc3n2)cc1

>  <test.target>
Aspergillus terreus

>  <zone of inhibition at 6.25 µg/mL [mm]>
9

$$$$
>  <smiles.representation>
Fc1ccc(-c2cc(-c3nc4ccccc4[nH]3)c3ccccc3n2)cc1

>  <test.target>
Aspergillus terreus

>  <zone of inhibition at 6.25 µg/mL [mm]>
12

$$$$

*Q* Query zone of inhibition at 6.25 µg/mL for `Fc1ccc(-c2cc(-c3nc4ccccc4[nH]3)c3cc(Cl)ccc3n2)cc1`
*A* 13

*Q* Query zone of inhibition at 6.25 µg/mL for `Fc1ccc(-c2cc(-c3nc4ccc(Cl)cc4[nH]3)c3cc(Cl)ccc3n2)cc1`
*A* 9

*Q* Query zone of inhibition at 6.25 µg/mL for `Fc1ccc(-c2cc(-c3nc4ccc(F)cc4[nH]3)c3ccccc3n2)cc1`
*A* 12

*Q* Query zone of inhibition at 6.25 µg/mL for `Fc1ccc(-c2cc(-c3nc4ccc(Cl)cc4[nH]3)c3ccccc3n2)cc1`
*A* 10

*Q* Query zone of inhibition at 6.25 µg/mL for `Fc1ccc(-c2cc(-c3nc4ncccc4[nH]3)c3ccccc3n2)cc1`
*A* 9

*Q* Query zone of inhibition at 6.25 µg/mL for `Fc1ccc(-c2cc(-c3nc4ccccc4[nH]3)c3cc(F)ccc3n2)cc1`
*A* 9

*Q* Query zone of inhibition at 6.25 µg/mL for `Fc1ccc(-c2cc(-c3nc4ncccc4[nH]3)c3cc(F)ccc3n2)cc1`
*A* 10

*Q* Query zone of inhibition at 6.25 µg/mL for `OC(Cn1cncn1)(Cn1cncn1)c1ccc(F)cc1F`
*A* 16

*Q* Query zone of inhibition at 6.25 µg/mL for `Fc1ccc(-c2cc(-c3nc4ccc(F)cc4[nH]3)c3cc(F)ccc3n2)cc1`
*A* 10

*Q* Query zone of inhibition at 6.25 µg/mL for `Fc1ccc(-c2cc(-c3nc4ccc(Cl)cc4[nH]3)c3cc(F)ccc3n2)cc1`
*A* 10

*Q* Query zone of inhibition at 6.25 µg/mL for `COc1ccc2nc(-c3cc(-c4ccc(F)cc4)nc4ccccc34)[nH]c2c1`
*A* 12

*Q* Query zone of inhibition at 6.25 µg/mL for `Fc1ccc(-c2cc(-c3nc4ncccc4[nH]3)c3cc(Cl)ccc3n2)cc1`
*A* 9
